Test system: NF-κB
Assay: cell-based NF-κB FRET assay
Conditions: compound + LPS; two point normalized, compound 1 as 200%, LPS (10 ng/mL) as 100%
Value Kind: NF-κB FRET Compound + LPS % Activation (%)
Number only, in %; omit the unit.

Given item Cc1ccc(C)c(-c2csc(NC(=O)c3ccc(SC4CCCCC4)cc3)n2)c1 [Compound 49a] , the value recorded as its NF-κB FRET Compound + LPS % Activation is 139.79

Cc1ccc(C)c(-c2csc(NC(=O)c3cccc(C(=O)N4CCCCC4)c3)n2)c1 [Compound 49d] has a reported NF-κB FRET Compound + LPS % Activation of 136.46

// NF-κB FRET Compound + LPS % Activation lookup, compound = CCSc1sc(NC(=O)c2ccc(S(=O)(=O)N3CCCCC3)cc2)nc1-c1cc(C)ccc1C [Compound 18k] , result: 167.51

Form: compound = C#CCNS(=O)(=O)c1ccc(C(=O)Nc2nc(-c3cc(C)ccc3C)cs2)cc1 [Compound 72a] ; NF-κB FRET Compound + LPS % Activation = 121.36

For record CCN(c1ccccc1)S(=O)(=O)c1ccc(C(=O)Nc2nc(-c3cc(C)ccc3C)cs2)cc1 [Compound 58d] the listed NF-κB FRET Compound + LPS % Activation is 74.73

Quick note, NF-κB FRET Compound + LPS % Activation for CCCC#Cc1sc(NC(=O)c2ccc(S(=O)(=O)N3CCCCC3)cc2)nc1-c1cc(C)ccc1C [Compound 18q] landed at 215.78

The measured NF-κB FRET Compound + LPS % Activation associated with CCCCN(CCCC)S(=O)(=O)c1ccc(C(=O)Nc2nc(-c3cc(C)ccc3C)cs2)cc1 [Compound 58c] reads 104.47

Measured NF-κB FRET Compound + LPS % Activation of CCC#Cc1sc(NC(=O)c2ccc(S(=O)(=O)N3CCCCC3)cc2)nc1-c1cc(C)ccc1C [Compound 18p] : 210.21
